Provenance of the data: patent US20260242478A1

Recorded CD28 scFv signal in presence of CD28 by entry
# study.target: Anti-CD28 scFv (VH - linker 1 - VL) (biotinylated (site not given))
# Sequence (scFv, as listed by the source): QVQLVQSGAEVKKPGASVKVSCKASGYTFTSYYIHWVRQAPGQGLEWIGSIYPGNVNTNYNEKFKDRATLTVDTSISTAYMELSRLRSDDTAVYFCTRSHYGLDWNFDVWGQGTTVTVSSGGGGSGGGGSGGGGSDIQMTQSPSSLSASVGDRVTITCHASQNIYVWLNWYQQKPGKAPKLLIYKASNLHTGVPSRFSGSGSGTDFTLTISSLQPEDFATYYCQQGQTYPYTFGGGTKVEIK
# assay.details: phage binding ELISA on anti-CD28 scFv plate; wells pre-incubated with soluble CD28 as competitor;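 also: clonal phage supernatants tested, bound phage read out with an HRP-linked anti-M13 antibody, reference wells received blocking buffer lacking CD28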
Where no end group is shown, it is not given here.
Answer with a number only.

{"binder": "MDWCPRSHWSECFS (cysteine pairing not given here; also: displayed on phage as fusion to pIII, fusion limits and linker not given here, Clonal phage of the Peptide-9 library, tested as crude phage supernatant; not shown: pIII of the bacteriophage) [Phage-277]", "reading": 0.087}

Ask: Which CD28 scFv signal in presence of CD28 is listed for MYWCATSMWNRCFV (cysteine pairing not given here; also: displayed on phage pIII, linker not given here, Clonal phage of the Peptide-9 library, tested as crude phage supernatant; not shown: pIII of the bacteriophage) [Phage-262] ?
Reply: 0.415

Ask: Which CD28 scFv signal in presence of CD28 is listed for MDWCPRYLWAECFN (cysteine pairing not given here; also: displayed on phage as fusion to pIII, fusion limits and linker not given here, Clonal phage of the Peptide-9 library, tested as crude phage supernatant; not shown: pIII of the bacteriophage) [Phage-279] ?
Reply: 1.14

Ask: Which CD28 scFv signal in presence of CD28 is listed for MDWCPRSIWYLCFN (cysteine pairing not given here; also: displayed on phage as fusion to pIII, fusion limits and linker not given here, Clonal phage of the Peptide-9 library, tested as crude phage supernatant; not shown: pIII of the bacteriophage) [Phage-278] ?
Reply: 1.34

Ask: Which CD28 scFv signal in presence of CD28 is listed for MDWCPRHMWHECFA (cysteine pairing not given here; also: displayed on phage pIII, linker not given here, Clonal phage of the Peptide-9 library, tested as crude phage supernatant; not shown: pIII of the bacteriophage) [Phage-263] ?
Reply: 0.298

Ask: Which CD28 scFv signal in presence of CD28 is listed for VTSCPTTMWNRCFS (cysteine pairing not given here; also: displayed on bacteriophage as fusion to pIII, fusion limits and linker not given here, Clonal phage of the Peptide-9 library, tested as crude phage supernatant; not shown: pIII of the bacteriophage) [Phage-266] ?
Reply: 0.546

Ask: Which CD28 scFv signal in presence of CD28 is listed for MDWCPMFMWHECFN (cysteine pairing not given here; also: displayed on phage as pIII fusion, fusion limits and linker not given here, Clonal phage of the Peptide-9 library, tested as crude phage supernatant; not shown: pIII of the bacteriophage) [Phage-261] ?
Reply: 1.04

Ask: Which CD28 scFv signal in presence of CD28 is listed for MVGCATSMWNRCLT (cysteine pairing not given here; also: fused to phage pIII, linker and fusion site not given here, Clonal phage of the Peptide-9 library, tested as crude phage supernatant; not shown: pIII of the bacteriophage) [Phage-253] ?
Reply: 0.746

Ask: Which CD28 scFv signal in presence of CD28 is listed for MDWCPRHMWINCFA (cysteine pairing not given here; also: fused to phage pIII, linker and fusion site not given here, Clonal phage of the Peptide-9 library, tested as crude phage supernatant; not shown: pIII of the bacteriophage) [Phage-252] ?
Reply: 0.165

Ask: Which CD28 scFv signal in presence of CD28 is listed for MDWCPRYLWSECFA (cysteine pairing not given here; also: fused to phage pIII, linker and fusion site not given here, Clonal phage of the Peptide-9 library, tested as crude phage supernatant; not shown: pIII of the bacteriophage) [Phage-254] ?
Reply: 0.513

Ask: Which CD28 scFv signal in presence of CD28 is listed for MDWCPRFLWHECFN (cysteine pairing not given here; also: fused to phage pIII, linker and fusion site not given here, Clonal phage of the Peptide-9 library, tested as crude phage supernatant; not shown: pIII of the bacteriophage) [Phage-257] ?
Reply: 0.351

Ask: Which CD28 scFv signal in presence of CD28 is listed for MDWCPRNLWHACFN (cysteine pairing not given here; also: fused to phage pIII, linker and fusion site not given here, Clonal phage of the Peptide-9 library, tested as crude phage supernatant; not shown: pIII of the bacteriophage) [Phage-259] ?
Reply: 0.112

Ask: Which CD28 scFv signal in presence of CD28 is listed for MDWCPFDLWHVCYN (cysteine pairing not given here; also: fused to phage pIII, linker and fusion site not given here, Clonal phage of the Peptide-9 library, tested as crude phage supernatant; not shown: pIII of the bacteriophage) [Phage-256] ?
Reply: 0.651

Ask: Which CD28 scFv signal in presence of CD28 is listed for MDWCPRFMWDLCFA (cysteine pairing not given here; also: displayed on phage as pIII fusion, fusion limits and linker not given here, Clonal phage of the Peptide-9 library, tested as crude phage supernatant; not shown: pIII of the bacteriophage) [Phage-265] ?
Reply: 0.725

Ask: Which CD28 scFv signal in presence of CD28 is listed for MDWCPRHLWHVCFN (cysteine pairing not given here; also: displayed on phage pIII, linker not given here, Clonal phage of the Peptide-9 library, tested as crude phage supernatant; not shown: pIII of the bacteriophage) [Phage-264] ?
Reply: 0.636
